test system: Plasmodium berghei; experiment: Screen against P. berghei liver stage (PbLuc), transformed with Luciferase, at 10uM; format: functional, HepG2; conditions: tested at 10 uM
Out of some 69,000 compounds screened, about 8,600 (12%) showed an effect of 50% or more. Many of the other results were omitted from the sample, so strong results are more common in it than they were.
Items are presented alongside their recorded INHIBITION.
Number only, in %; omit the unit.

Some solved cases for reference:
compound=Cc1ccc(S(=O)(=O)n2ccn(C(=O)COc3ccccc3)c2=O)cc1 observed=44.1
compound=COc1ccnc(N2CCN(CC(=O)N3CCC(C)CC3)CC2)n1 observed=-22.9
compound=O=C(NCCOCC(F)(F)F)c1ccc(-c2ccccc2)[nH]c1=O observed=14.4
compound=CSCc1cccc(S(=O)(=O)N2CCCCCC2)c1 observed=2.69
compound=F[C@@H]1CN(CC2CCCCC2)C[C@@H]1OCc1nc2ccccc2o1 observed=29.8

Consider the record given below.
Entry under test: CC(CC(=O)O)CC(=O)Nc1sc2c(c1C(N)=O)CCc1ccccc1-2 (centres undefined) . Its INHIBITION was 27.5

====

test system: Plasmodium berghei; assay: Screen against P. berghei liver stage (PbLuc), transformed with Luciferase, at 10uM; format: functional, HepG2; details: tested at 10 uM
Screen size: about 69,000 compounds; about 8,600 (12%) showed an effect of 50% or more. Many of the other results were omitted from the sample, so strong results are more common in it than they were.
Cut-off 40% on INHIBITION: below means condition met, at or above means condition not met.

Some solved cases for reference:
compound=CCCNC(=O)c1cc2c(s1)CCN2C(=O)CN(C)C tgt="Plasmodium berghei" qualitative_label="condition met"
compound=CC(C)c1noc(CN2CCC(c3ccnn3CCO)CC2)n1 tgt="Plasmodium berghei" qualitative_label="condition met"
compound="c1ccc(CCN2CCCC2c2cncc(Nc3nncs3)n2)cc1 (centres undefined)" tgt="Plasmodium berghei" qualitative_label="condition met"
compound=CCOc1ccc2cc(C(=O)NCCC(=O)N(C)C)[nH]c2c1 tgt="Plasmodium berghei" qualitative_label="condition met"
compound=Cc1ncc(CN(Cc2ccccn2)Cc2ccccc2Cl)n1C tgt="Plasmodium berghei" qualitative_label="condition not met"
compound=Cc1cc(NCc2ccc(S(N)(=O)=O)cc2)nc(C)n1 tgt="Plasmodium berghei" qualitative_label="condition not met"

Given O=C1N(Cc2ccc(F)c(F)c2)CCCC12CCN(C1CCCCC1)C2 (centres undefined) , is recorded INHIBITION strictly lower than 40%?
condition not met

====

Below: a set of entries, each annotated with reported INHIBITION.
test system: Plasmodium berghei; assay: Screen against P. berghei liver stage (PbLuc), transformed with Luciferase, at 10uM; format: functional, HepG2; details: tested at 10 uM
In all, about 69,000 compounds went through this assay and about 8,600 (12%) showed an effect of 50% or more. The sample holds strong results, similar compounds and a random draw of the others, so the mix is not that of the screen.
Respond with a number, then the unit of measure.

structure_smiles=COc1ccc(-c2csc(N)c2C#N)cc1OC observed=1.58%
structure_smiles=Cc1nc(-c2ccccc2)nc2c1CCN(Cc1nccn1C)CC2 observed=75.6%

Reported INHIBITION for CC(C)c1sc(Cl)nc1C(=O)NCc1ccncc1 was -23%

Form: compound = COc1ccc(-c2c(C(C)C)nn3c(=N)c(C#N)n[nH]c23)cc1 ; INHIBITION = 53.1%

Query O=C(c1ccc(F)cc1F)N1C[C@@H]2CC[C@H]1CN(Cc1ccccc1)C2 yields INHIBITION of 41.5%

Record COc1ccc(-c2c(C)nn3c(=N)c(C#N)n[nH]c23)cc1OC . Reported INHIBITION: 85%
